# test target: T1, IL-18 receptor (IL-18R) on HEK-Blue IL18R reporter cells (UniProt Q13478 19-541; O95256 20-599, limits assumed)
# T1 sequence (looked up) 1: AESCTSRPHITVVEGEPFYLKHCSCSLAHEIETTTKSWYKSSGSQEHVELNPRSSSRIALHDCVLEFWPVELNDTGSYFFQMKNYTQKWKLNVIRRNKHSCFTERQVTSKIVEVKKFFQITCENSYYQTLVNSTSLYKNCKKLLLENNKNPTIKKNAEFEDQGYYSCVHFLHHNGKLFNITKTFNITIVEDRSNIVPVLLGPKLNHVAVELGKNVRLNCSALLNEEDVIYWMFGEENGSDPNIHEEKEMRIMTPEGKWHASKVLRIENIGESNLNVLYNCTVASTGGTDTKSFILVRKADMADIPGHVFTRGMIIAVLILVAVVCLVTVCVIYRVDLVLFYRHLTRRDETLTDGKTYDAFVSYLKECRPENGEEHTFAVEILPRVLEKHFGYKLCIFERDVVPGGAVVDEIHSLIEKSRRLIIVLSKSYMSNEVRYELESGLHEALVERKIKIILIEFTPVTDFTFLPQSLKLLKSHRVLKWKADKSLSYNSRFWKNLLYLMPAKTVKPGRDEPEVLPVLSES
# T1 sequence (looked up) 2: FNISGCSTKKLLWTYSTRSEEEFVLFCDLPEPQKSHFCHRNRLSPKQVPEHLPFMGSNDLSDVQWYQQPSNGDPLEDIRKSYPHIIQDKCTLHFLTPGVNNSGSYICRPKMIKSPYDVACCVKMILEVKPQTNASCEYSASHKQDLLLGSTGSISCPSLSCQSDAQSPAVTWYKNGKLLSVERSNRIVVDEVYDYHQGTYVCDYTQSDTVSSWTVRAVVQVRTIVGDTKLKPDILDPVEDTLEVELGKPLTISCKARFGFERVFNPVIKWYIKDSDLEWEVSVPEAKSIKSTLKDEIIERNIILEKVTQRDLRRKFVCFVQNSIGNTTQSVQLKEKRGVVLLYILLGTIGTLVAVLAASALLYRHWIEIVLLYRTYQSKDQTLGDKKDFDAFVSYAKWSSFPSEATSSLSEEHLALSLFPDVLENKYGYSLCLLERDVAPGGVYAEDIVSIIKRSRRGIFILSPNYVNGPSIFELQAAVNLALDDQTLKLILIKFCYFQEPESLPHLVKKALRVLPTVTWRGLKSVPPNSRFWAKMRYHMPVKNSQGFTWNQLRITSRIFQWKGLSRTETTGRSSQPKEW
# assay info: cell-based or functional assay
metric: EC50, HEK-Blue IL18R reporter

[
  {
    "binder": "IL-18 variant SEQ ID NO: 30 with 30 kDa PEG (E6K, V11I, C38A, K53A, T63A, C76A, C127A, C68-30kPEG) (ligand, 30 kDa PEG on Cys 68 (C68-30kPEG), also called 30 + PEG30; 30 + PEG) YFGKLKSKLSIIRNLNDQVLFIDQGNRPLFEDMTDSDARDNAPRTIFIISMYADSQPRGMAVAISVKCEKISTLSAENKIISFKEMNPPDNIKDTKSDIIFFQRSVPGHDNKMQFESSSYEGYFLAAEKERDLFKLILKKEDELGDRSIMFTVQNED",
    "value observed": "0.23 nM"
  },
  {
    "binder": "IL-18 variant SEQ ID NO: 212 (V11I, D35A, C38A, K53A, C76A, C127A) (ligand) YFGKLESKLSIIRNLNDQVLFIDQGNRPLFEDMTASDARDNAPRTIFIISMYADSQPRGMAVTISVKCEKISTLSAENKIISFKEMNPPDNIKDTKSDIIFFQRSVPGHDNKMQFESSSYEGYFLAAEKERDLFKLILKKEDELGDRSIMFTVQNED",
    "value observed": "13.1 nM"
  },
  {
    "binder": "IL-18 variant SEQ ID NO: 213 (V11I, S36A, C38A, K53A, C76A, C127A) (ligand) YFGKLESKLSIIRNLNDQVLFIDQGNRPLFEDMTDADARDNAPRTIFIISMYADSQPRGMAVTISVKCEKISTLSAENKIISFKEMNPPDNIKDTKSDIIFFQRSVPGHDNKMQFESSSYEGYFLAAEKERDLFKLILKKEDELGDRSIMFTVQNED",
    "value observed": "0.25 nM"
  }
]
